Observed pKi values for Plasminogen (Homo sapiens) are listed in what follows.
pKi: −log10 of the molar value.

| SMILES | pKi |
| --- | --- |
| [H]/N=C(\N)c1ccc(NCc2nc3cc(C4(/C(=N\OCC(=O)OCC)c5ccccn5)CC4)ccc3n2C)cc1 | 5.17 |
| Cn1c(CNc2ccc(C(=N)N)cc2)nc2cc(C3(C(=O)N4CCCC4)CC3)ccc21 | 4.89 |

----------
target: UniProt P03951
Sequence (P03951 19-387 limits assumed): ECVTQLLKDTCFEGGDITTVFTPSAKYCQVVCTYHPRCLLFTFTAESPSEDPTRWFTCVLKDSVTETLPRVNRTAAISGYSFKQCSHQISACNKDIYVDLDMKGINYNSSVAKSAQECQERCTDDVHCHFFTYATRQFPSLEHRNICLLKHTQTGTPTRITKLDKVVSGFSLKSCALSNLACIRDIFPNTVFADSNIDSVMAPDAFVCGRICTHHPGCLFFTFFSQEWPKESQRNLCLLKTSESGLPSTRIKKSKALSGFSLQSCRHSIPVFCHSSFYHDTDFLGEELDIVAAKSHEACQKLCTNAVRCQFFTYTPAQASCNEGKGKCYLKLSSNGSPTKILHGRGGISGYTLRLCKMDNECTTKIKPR
Sequence (P03951 388-625 limits assumed): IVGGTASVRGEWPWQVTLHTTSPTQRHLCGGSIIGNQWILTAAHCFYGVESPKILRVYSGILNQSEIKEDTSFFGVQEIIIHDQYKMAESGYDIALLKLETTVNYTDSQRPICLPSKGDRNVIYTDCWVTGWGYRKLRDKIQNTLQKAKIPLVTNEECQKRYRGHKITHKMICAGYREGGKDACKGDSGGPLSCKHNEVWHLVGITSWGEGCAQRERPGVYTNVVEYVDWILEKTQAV
// reported Ki per item

| SMILES | VALUE_UNIT | Ki |
| --- | --- | --- |
| [H]/N=C(\N)c1ccc(NCc2nc3cc(C4(/C(=N\OCC(=O)OCC)c5ccccn5)CC4)ccc3n2C)cc1 | µM | 9 |
| Cn1c(CNc2ccc(C(=N)N)cc2)nc2cc(C3(C(=O)N4CCCC4)CC3)ccc21 | µM | 8.2 |
